assay: MTT cytotoxicity in HaCaT; assay type: cell-based, human; conditions: human, HaCaT cells, 48 h, 500 μM, read-out: % Cytotoxicity w.r.t. untreated cells
Counter-ions that a name gives are not always drawn.
parameter: cytotoxicity at 48 h, 500 µM (%)

COC(=O)CCc1ccc(OCC(O)CNC(C)C)cc1 (stereo not shown) [Esmolol hydrochloride]: 16.2

* * *

test: Toxicokinetics in miniature swine; type: in vivo, Hanford miniature swine; conditions: both sexes, Hanford, pig (miniature swine), blood; after first topical dose of Galnobax Gel 400 mg; below the quantitation limit; read-out: blood concentration by the second daily dose (8 hr)
Structures can show the parent of a compound that is named as a salt.
parameter: concentration at 8 hr

COC(=O)CCc1ccc(OCC(O)CNC(C)C)cc1 (stereo not shown) [Esmolol hydrochloride]: < 5 ng/mL

* * *

experiment: Toxicokinetics in miniature swine; format: in vivo, Hanford miniature swine; details: both sexes, Hanford, pig, blood, topical or ocular, 400 mg, Week 12, Group 2 swine, topical 400 mg Galnobax Gel BID, mean; read-out: AUC0-8
Counter-ions that a name gives are not always drawn.
parameter: AUC from 0 to 8 h

COC(=O)CCc1ccc(OCC(O)CNC(C)C)cc1 (stereo not shown) [Esmolol hydrochloride]: 35.4 ng·h/mL

* * *

test: MTT cytotoxicity in HaCaT; assay type: cell-based, human; conditions: human, HaCaT cells, 48 h, 10 μM, read-out: % Cytotoxicity w.r.t. untreated cells
Structures can show the parent of a compound that is named as a salt.
parameter: cytotoxicity at 48 h, 10 µM (%)

COC(=O)CCc1ccc(OCC(O)CNC(C)C)cc1 (stereo not shown) [Esmolol hydrochloride]: -14.8

* * *

test: Toxicokinetics in miniature swine; type: in vivo, Hanford miniature swine; conditions: both sexes, Hanford, pig, blood, topical or ocular, 400 mg, Day 1, Group 2 swine, topical 400 mg Galnobax Gel, mean
Structures can show the parent of a compound that is named as a salt.
parameter: AUC(0-t) (ng·h/mL)

COC(=O)CCc1ccc(OCC(O)CNC(C)C)cc1 (stereo not shown) [Esmolol hydrochloride]: 18.7
